- method: budding yeast growth modifiers under rapamycin – strain BY4716, OD600, 96 h, primary screen (AID 1091); note: test concentration not given here
- measurement_parameters: S. cerevisiae BY4716 + rapamycin, higher = more signal, called active from +8 up or from −8 down
Give measured z-score for each item. Keep answers brief.
Form rule: numeric answer, no unit written next to it.

**Query** Any idea what its z-score is? The compound is CCOC(=O)C[C@H]1[C@H](OC(=O)c2cc3ccccc3oc2=O)[C@@H](NC(=O)c2ccc3ccccc3n2)c2cc(OCCCO)ccc2N1C(=O)Cc1ccc(OC)cc1
**Result** -0.617

**Query** Entry C=CC[C@@]1(C(=O)NCCCOC)N=C(c2ccc(OCCCO)cc2)O[C@@H]1c1ccccc1 please
**Result** -0.725

**Query** Entry COc1cc2c(cc1O)C(C1CC1)N(Cc1cccc(OC(F)(F)F)c1)CC2 (stereo not drawn) please
**Result** -2.53

**Query** Entry CC(=O)N1CC2(CC2)CC1c1ccccc1 (stereo not drawn) please
**Result** 0.218

**Query** Entry CCCCC(=C=CC[C@H](O)c1ccc(OCCO)cc1)CCO please
**Result** -1.02

**Query** Entry CCCCCC1=C2CNC(C)(C(=O)OC)C=C2C(C)C1=O (stereo not drawn) please
**Result** 1.48

**Query** Entry CC(C)NC(=O)[C@@]1(C)c2ccccc2C(=O)N(Cc2ccc(OC(F)(F)F)cc2)[C@H]1c1ccc(CO)cc1 please
**Result** -1.38

**Query** Entry COc1ccc(CCNC(=O)[C@@]2(c3ccc([N+](=O)[O-])cc3)CC(=O)N(C3CCCCC3)[C@@H]2c2ccc(CO)cc2)cc1 please
**Result** 0.361

**Query** Entry [N-]=[N+]=Nc1ccccc1C[C@@]1(C(=O)N2CCOCC2)N=C(c2ccc(OCCCO)cc2)O[C@@H]1c1ccccc1 please
**Result** 0.0666

**Query** Entry Cc1ccc(NN2C(C(O)c3c(F)cccc3Cl)C=CC3C(=O)N(C4CCCCC4)C(=O)C32)cc1 (stereo not drawn) please
**Result** -0.262

**Query** Entry O=C1O[C@@H](c2ccccc2)[C@@H](c2ccccc2)N2[C@@H](c3ccc(O)cc3)[C@]3(C(=O)Nc4ccc(C#CCCO)cc43)[C@@H](C(=O)N3CCN(c4ncccn4)CC3)[C@H]12 please
**Result** 6.45

**Query** Entry COCCOC(=O)N1C(=O)[C@@]2(c3cc(C#CC4=CCCCC4)ccc31)[C@H](c1ccccc1OCCO)N1[C@H](c3ccccc3)[C@H](c3ccccc3)OC(=O)[C@H]1[C@@H]2C(=O)N1CCN(c2ncccn2)CC1 please
**Result** 2.44

**Query** Entry COc1ccc(C#Cc2ccc3c(c2)[C@]2(C(=O)N3)[C@H](c3ccc(O)cc3)N3[C@H](c4ccccc4)[C@H](c4ccccc4)OC(=O)[C@H]3[C@@H]2C(=O)Nc2nc3ccccc3s2)cc1 please
**Result** -0.221

**Query** Entry COc1cc(NN2C(C(O)c3cc(OC)c(OC)c(OC)c3)C=CC3C(=O)N(C)C(=O)C32)cc(OC)c1OC (stereo not drawn) please
**Result** -0.0522

**Query** Entry CCCCC(O)C1C=CC2C(=O)N(C)C(=O)C2N1N(c1ccccc1)c1ccccc1 (stereo not drawn) please
**Result** 0.251

**Query** Entry COCCOC(=O)N1C(=O)[C@@]2(c3cc(C#CCNC(N)=O)ccc31)[C@H](C(N)=O)[C@H]1C(=O)O[C@H](c3ccccc3)[C@H](c3ccccc3)N1[C@@H]2c1ccccc1OCCO please
**Result** 1.91

**Query** Entry COc1cc(OC)c(C(O)C2C=CC3C(=O)N(Cc4ccccc4)C(=O)C3N2n2cnnc2)cc1Br (stereo not drawn) please
**Result** 0.027

**Query** Entry CCN(CC)c1ccc(N2CC=CC34O[C@@H]5/C=C\CCCOC(=O)C5[C@H]3C(=O)N(C(C)CO)[C@@H]4C2=O)cc1 (stereo partly drawn) please
**Result** -0.497

**Query** Entry N#Cc1ccc(NN2C(C(O)c3ccc(Br)cc3)C=CC3C(=O)N(c4ccccc4)C(=O)C32)cc1 (stereo not drawn) please
**Result** 0.297

**Query** Entry O=C(Cc1ccccc1)[C@H]1C2C=CCCC(c3ccccc3)=C2CN1Cc1ccccc1 (stereo partly drawn) please
**Result** -0.481

**Query** Entry CCCCC(CC)C(O)C1C=CC2C(=O)N(c3ccccc3)C(=O)C2N1Nc1ccccc1F (stereo not drawn) please
**Result** 0.314

**Query** Entry CCOc1cc(C(O)C2C=CC3C(=O)NC(=O)C3N2Nc2ccc(Cl)cc2Cl)ccc1O (stereo not drawn) please
**Result** 0.339

**Query** Entry COC(=O)[C@@]1(Cc2ccc(OC)cc2)[C@H]2c3cc(C(=O)N(C)C)n(Cc4ccc(C)o4)c3C[C@H]2CN1C(=O)c1ccccc1 please
**Result** 0.0527

**Query** Entry NCCCCCCNC(=O)[C@@H]1C[C@@H]2C(=O)N[C@@H](CCCCN)C(=O)N2[C@@H]1c1ccc(O)cc1 please
**Result** -1.38

**Query** Entry COc1ccccc1CN1C(=O)c2ccccc2[C@](Cc2ccccc2I)(C(=O)O)[C@@H]1c1ccc(CO)cc1 please
**Result** -0.0193

**Query** Entry CCOC(=O)C=Cc1cccc(C)c1O please
**Result** -2.54

**Query** Entry O=C1OCCC=C[C@H]2OC34C=CCN(c5ccc6ccccc6c5)C(=O)[C@H]3N(CCCO)C(=O)[C@@H]4C12 (stereo partly drawn) please
**Result** 0.345

**Query** Entry C=C(COC)C(=O)CC[C@@H](OC(C)=O)c1cccc(OCCO)c1 please
**Result** 0.962
